Where do these numbers come from? They come from the supplement of paper PMC5908809.

tested on: YT (IL-2 2.5 ng/mL); assay: percent inhibition of viability; higher = more inhibition; conditions: 72 h; 1 nM;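 note: normalised to DMSO-only wells as negative and benzethonium chloride as positive control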
Attribute: percent inhibition of viability
recorded endpoint: percent inhibition of viability (%)

- compound: "CCc1cnn2c(NCc3ccc[n+]([O-])c3)cc(N3CCCC[C@H]3CCO)nc12 [Dinaciclib] (max concentration tested 1000 nM)"
  recorded endpoint: "percent inhibition of viability"
  reading: 2.09
- compound: "NC(=S)N/N=C/c1ncccc1N [Triapine] (max concentration tested 10000 nM)"
  recorded endpoint: "percent inhibition of viability"
  reading: 0.85
- compound: "COc1cc([C@@H]2c3cc4c(cc3[C@@H](O[C@@H]3O[C@@H]5CO[C@@H](C)O[C@H]5[C@H](O)[C@H]3O)[C@H]3COC(=O)[C@H]23)OCO4)cc(OC)c1O [Etoposide] (max concentration tested 10000 nM)"
  recorded endpoint: "percent inhibition of viability"
  reading: -3.45
- compound: "C=CCN(/C=C1/C(=O)O[C@H](COC)[C@@]2(C)C1=C(O)C(=O)C1=C2[C@H](OC(C)=O)C[C@]2(C)C(=O)CC[C@@H]12)CC=C [Sonolisib] (max concentration tested 10000 nM)"
  recorded endpoint: "percent inhibition of viability"
  reading: -3.75
- compound: "CN[C@@H](C)C(=O)N[C@H]1CN(C(=O)CC(C)C)CC[C@H]2CC[C@@H](C(=O)NC(c3ccccc3)c3ccccc3)N2C1=O [AT-406] (max concentration tested 10000 nM)"
  recorded endpoint: "percent inhibition of viability"
  reading: 0.43
- compound: "CNC(=O)c1ccc2cc([C@@]3(O)CCn4cncc43)ccc2c1 [Orteronel] (max concentration tested 10000 nM)"
  recorded endpoint: "percent inhibition of viability"
  reading: -1.09
- compound: "NC(=O)Nc1cc(-c2cccc(F)c2)sc1C(=O)N[C@H]1CCCNC1 [AZD7762] (max concentration tested 1000 nM)"
  recorded endpoint: "percent inhibition of viability"
  reading: -1.28
- compound: "CC[C@H](CC#N)OC(=O)N[C@@H](C)c1cccc(NC(=O)Nc2ccc(-c3cnco3)c(OC)c2)c1 [AVN944] (max concentration tested 10000 nM)"
  recorded endpoint: "percent inhibition of viability"
  reading: 1.64
- compound: "CNC(=O)c1ccccc1Sc1ccc2c(/C=C/c3ccccn3)n[nH]c2c1 [Axitinib] (max concentration tested 10000 nM)"
  recorded endpoint: "percent inhibition of viability"
  reading: -2.15
- compound: "CCC1(c2ccc(N)cc2)CCC(=O)NC1=O (configuration not stated) [Aminoglutethimide] (max concentration tested 10000 nM)"
  recorded endpoint: "percent inhibition of viability"
  reading: 13.1
- compound: "O=C(O)CCCc1ccc(N(CCCl)CCCl)cc1 [Chlorambucil] (max concentration tested 10000 nM)"
  recorded endpoint: "percent inhibition of viability"
  reading: -0.58
- compound: "Cn1cc(C2=C(c3cn(C4CCN(Cc5ccccn5)CC4)c4ccccc34)C(=O)NC2=O)c2ccccc21 [Enzastaurin] (max concentration tested 10000 nM)"
  recorded endpoint: "percent inhibition of viability"
  reading: 0.21

---

tested on: DERL-7 (IL-2 2.5 ng/mL); assay: percent inhibition of viability; higher = more inhibition; conditions: 72 h; 100 nM
recorded endpoint: percent inhibition of viability (%)

- molecule: "COc1cc([C@@H]2c3cc4c(cc3[C@@H](O[C@@H]3O[C@@H]5CO[C@@H](C)O[C@H]5[C@H](O)[C@H]3O)[C@H]3COC(=O)[C@H]23)OCO4)cc(OC)c1O [Etoposide] (max concentration tested 10000 nM)"
  study system: "DERL-7 (IL-2 2.5 ng/mL)"
  measurement units: "%"
  reading: 32.8
- molecule: "CO[C@@H](C(=O)N1Cc2[nH]nc(NC(=O)c3ccc(N4CCN(C)CC4)cc3)c2C1)c1ccccc1 [Danusertib] (max concentration tested 10000 nM)"
  study system: "DERL-7 (IL-2 2.5 ng/mL)"
  measurement units: "%"
  reading: 28.8
- molecule: "CS(=O)(=O)N1CCN(Cc2cc3nc(-c4cccc5[nH]ncc45)nc(N4CCOCC4)c3s2)CC1 [Pictilisib] (max concentration tested 10000 nM)"
  study system: "DERL-7 (IL-2 2.5 ng/mL)"
  measurement units: "%"
  reading: 16.1
- molecule: "COc1cc(CCc2cc(NC(=O)c3ccc(N4CC(C)NC(C)C4)cc3)n[nH]2)cc(OC)c1 (configuration not stated) [AZD4547] (max concentration tested 1000 nM)"
  study system: "DERL-7 (IL-2 2.5 ng/mL)"
  measurement units: "%"
  reading: 3.09
- molecule: "Cc1cc2c(F)c(Oc3ncnn4cc(OC[C@@H](C)O)c(C)c34)ccc2[nH]1 [Brivanib] (max concentration tested 1000 nM)"
  study system: "DERL-7 (IL-2 2.5 ng/mL)"
  measurement units: "%"
  reading: 3.07
- molecule: "Clc1ccc(Nc2nnc(Cc3ccncc3)c3ccccc23)cc1 [Vatalanib] (max concentration tested 10000 nM)"
  study system: "DERL-7 (IL-2 2.5 ng/mL)"
  measurement units: "%"
  reading: 0.68
- molecule: "CO[C@H](C(=O)[C@@H](O)[C@@H](C)O)[C@@H]1Cc2cc3cc(O[C@H]4C[C@@H](O[C@@H]5C[C@@H](O)[C@H](O)[C@@H](C)O5)[C@H](O)[C@@H](C)O4)c(C)c(O)c3c(O)c2C(=O)[C@H]1O[C@H]1C[C@@H](O[C@@H]2C[C@@H](O)[C@@H](O[C@@H]3C[C@](C)(O)[C@H](O)[C@@H](C)O3)[C@@H](C)O2)[C@H](O)[C@@H](C)O1 [Plicamycin] (max concentration tested 10000 nM)"
  study system: "DERL-7 (IL-2 2.5 ng/mL)"
  measurement units: "%"
  reading: 86.8
- molecule: "CN(C)CCN1C(=O)c2cccc3cc(N)cc(c23)C1=O [Amonafide] (max concentration tested 10000 nM)"
  study system: "DERL-7 (IL-2 2.5 ng/mL)"
  measurement units: "%"
  reading: -12.6
- molecule: "C=C(c1ccc(C(=O)O)cc1)c1cc2c(cc1C)C(C)(C)CCC2(C)C [Bexarotene] (max concentration tested 10000 nM)"
  study system: "DERL-7 (IL-2 2.5 ng/mL)"
  measurement units: "%"
  reading: -7.53
- molecule: "c1ccc(Cn2c(-c3ccc(OC[C@H](C4CCNCC4)n4c(-c5ccccc5)nc5ccccc54)cc3)nc3ccccc32)cc1 [deltarasin] (max concentration tested 10000 nM)"
  study system: "DERL-7 (IL-2 2.5 ng/mL)"
  measurement units: "%"
  reading: -2.6
- molecule: "CC(C)c1c(C(=O)Nc2ccccc2)c(-c2ccccc2)c(-c2ccc(F)cc2)n1CC[C@@H](O)C[C@@H](O)CC(=O)O [Atorvastatin] (max concentration tested 10000 nM)"
  study system: "DERL-7 (IL-2 2.5 ng/mL)"
  measurement units: "%"
  reading: -3.51
- molecule: "Cc1c(N)nc([C@H](CC(N)=O)NC[C@H](N)C(N)=O)nc1C(=O)N[C@H](C(=O)N[C@H](C)[C@@H](O)[C@H](C)C(=O)N[C@H](C(=O)NCCc1nc(-c2nc(C(=O)NCCC[S+](C)C)cs2)cs1)[C@@H](C)O)[C@@H](OC1OC(CO)C(O)C(O)C1OC1OC(CO)C(O)C(OC(N)=O)C1O)c1cnc[nH]1 (some centres not stated) [Bleomycin] (max concentration tested 10000 nM)"
  study system: "DERL-7 (IL-2 2.5 ng/mL)"
  measurement units: "%"
  reading: 1.21
- molecule: "O=C(NC[C@H](O)CO)c1ccncc1Nc1ccc(I)cc1F [Pimasertib] (max concentration tested 10000 nM)"
  study system: "DERL-7 (IL-2 2.5 ng/mL)"
  measurement units: "%"
  reading: 29.4
- molecule: "Cc1ccc(C(=O)Nc2ccc(CN3CCN(C)CC3)c(C(F)(F)F)c2)cc1C#Cc1cnc2cccnn12 [Ponatinib] (max concentration tested 1000 nM)"
  study system: "DERL-7 (IL-2 2.5 ng/mL)"
  measurement units: "%"
  reading: 18.4
- molecule: "CN1CCN(c2nc(C3=C(c4c[nH]c5ccccc45)C(=O)NC3=O)c3ccccc3n2)CC1 [Sotrastaurin] (max concentration tested 10000 nM)"
  study system: "DERL-7 (IL-2 2.5 ng/mL)"
  measurement units: "%"
  reading: 2.08
- molecule: "C=CCn1c(=O)c2cnc(Nc3ccc(N4CCN(C)CC4)cc3)nc2n1-c1cccc(C(C)(C)O)n1 [MK1775] (max concentration tested 10000 nM)"
  study system: "DERL-7 (IL-2 2.5 ng/mL)"
  measurement units: "%"
  reading: 17.1
- molecule: "Cc1csc(-c2nnc(Nc3ccc(Oc4ncccc4-c4ccnc(N)n4)cc3)c3ccccc23)c1 [AMG-900] (max concentration tested 1000 nM)"
  study system: "DERL-7 (IL-2 2.5 ng/mL)"
  measurement units: "%"
  reading: 70.8
- molecule: "CC1(COc2ccc3c(c2)ncn3-c2ccc3cccc(N4CCC(N)CC4)c3n2)COC1 [Crenolanib] (max concentration tested 10000 nM)"
  study system: "DERL-7 (IL-2 2.5 ng/mL)"
  measurement units: "%"
  reading: 2.82
- molecule: "Nc1ccccc1NC(=O)c1ccc(CNc2nccc(-c3cccnc3)n2)cc1 [Mocetinostat] (max concentration tested 10000 nM)"
  study system: "DERL-7 (IL-2 2.5 ng/mL)"
  measurement units: "%"
  reading: -13.8
- molecule: "O=C(O)CC[C@H]1CC[C@@](c2cc(F)ccc2F)(S(=O)(=O)c2ccc(Cl)cc2)CC1 [MK-0752] (max concentration tested 1000 nM)"
  study system: "DERL-7 (IL-2 2.5 ng/mL)"
  measurement units: "%"
  reading: -1.84
- molecule: "Cc1cccc(-c2nn3c(c2-c2ccnc4ccc(C(N)=O)cc24)CCC3)n1 [Galunisertib] (max concentration tested 1000 nM)"
  study system: "DERL-7 (IL-2 2.5 ng/mL)"
  measurement units: "%"
  reading: -1.77
- molecule: "CN[C@@H](C)C(=O)N[C@H]1CN(C(=O)CC(C)C)CC[C@H]2CC[C@@H](C(=O)NC(c3ccccc3)c3ccccc3)N2C1=O [AT-406] (max concentration tested 10000 nM)"
  study system: "DERL-7 (IL-2 2.5 ng/mL)"
  measurement units: "%"
  reading: 10.6
